System: PD-1 antigen (ELISA of Example 2) (human, UniProt Q15116 25-167, limits assumed)
Sequence (Q15116 25-167 limits assumed): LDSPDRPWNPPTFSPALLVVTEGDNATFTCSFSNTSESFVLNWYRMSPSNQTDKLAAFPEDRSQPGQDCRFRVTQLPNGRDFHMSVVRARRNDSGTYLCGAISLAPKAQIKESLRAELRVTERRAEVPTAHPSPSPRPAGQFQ
Assay Text: ELISA, signal on PD-1 antigen over control
Could you mark each record met if its A/control falls strictly under 5, and not met if it equals or exceeds it?

1. 2PD27 (VHH, PD-1 VHH) VHH: QVQLQESGGGSVQPGKSLRLSCAASGRTFSSLGMGWFRQAPGKEREFVSAIAWNGASTYYTESVKGRFTISRDDAKNTVYLQMNSLKPTDTAVYFCAASGLGSVVVTANEYDYWGQGTQVTVSS | met
2. 2PD-12 (VHH, PD-1 VHH) VHH: QVQLQESGGGLVQAGGSLRLSCAVSGFILDYYGIGWFRQAPGKEREAVSCISSSDGSTYYADSVKGRFTISRDNALNTLYLQMNSLKPEDTAVYHCATATLCDGGIWGYWGQGTQVTVSS | not met
3. 2PD23 (VHH, PD-1 VHH) VHH: QVQLQESGGGLVQPGGSLRLSCAASGFSMDYYAIAWFRQAPGKEREEISCITGSDFMVDTYYVASVKGRFTISRDNAENTAYLQMNNLKPEDTGVYFCAVRSTANTLCPSHYSVMDYWGKGTQVTVSS | met
4. 3PD82 (VHH, PD-1 VHH) VHH: QVQLQESGGGSVQPGGSLRLSCAVSGFILDYYGIGWFRQAPGKEREAVSCISSSDGSTYYADSVKGRFTISRDNALNTLYLQMNSLKPEDTAVYYCATATLCDGGIWGYWGQGTQVTVSS | not met
5. 2PD71 (VHH, PD-1 VHH) VHH: QVQLQESGGGLVQTGESLRLSCAASGGFNRVSYMGWYRQAPGSKRELVASVTSGGEITVADSVKGRFTVSRDNNKNTLYLQMNGLKPEDGATYWCNADIWVSDARMYNYWGQGTQVTVSS | met
